Tested on: Saccharomyces cerevisiae
Assay: transcriptional activation domain activity (GFP:mCherry ratio, weighted mean of sorted bins, harmonized to initial dataset scale) (arbitrary fluorescence ratio units); higher = stronger transcriptional activation
Conditions: beta-estradiol 1 µM; induction time 4 h
Measured transcriptional activation domain activity, listed per entry.
Please state the value as a number alone, without comment.

Example sequences with recorded transcriptional activation domain activity:
Name the recorded transcriptional activation domain activity for `RSRAEGGSSPGRGGSEDGAGAGKPGKERRDKSRGARAKQCGCKAVNQDKSCEC` . 21900

Similarly, `SSSSSSSSESGSESDSGSDDGSASGSGDNSSTSSESESESDSGSEVDEKNNKN` ? 33900

Next sequence up: `EDDDERRRKESSSSSRRKDRDRDDDGHERKDRKDRKHGSHRDRETDREREKRK` 33000

Now the same for `MSNGSSFVQCIDTRLCLLYSLVFREHMAFHPIISSFLFLIRLLILLASLFLFF` 48500

What do you have for `MVLLGSCTLLIGKTITPYILVHKTGILYPLLFFFFFSLSLSFFYFFIGTFPLG` ? 52100

Further cases:
So what's the measured transcriptional activation domain activity for this one? `VIFSFLVLNFFYFSISFFLSSSFISYFHFHLSLFPFPFSFVFLIHYLFSFIVN` 26300

Input `MSIFFSVIPPFFSFLPLMLFFFFFLGCLGNGSTFFVSTLLWMGGSIGLLSFYS` 55600

Follow-up item: `SEVKYFWSYYNHVCFLVIPIDDNGLSIFFSCFTGESVEIILSIICVAMTQVLT` 35200
